Target: T1, CRBN, Q96SW2;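 further: pooled lentiviral library of zinc finger degron-EGFP fusions in mCherry-positive Jurkat cells, FACS-sorted after compound exposure, with degron abundance counted by next-generation sequencing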
T1 chain: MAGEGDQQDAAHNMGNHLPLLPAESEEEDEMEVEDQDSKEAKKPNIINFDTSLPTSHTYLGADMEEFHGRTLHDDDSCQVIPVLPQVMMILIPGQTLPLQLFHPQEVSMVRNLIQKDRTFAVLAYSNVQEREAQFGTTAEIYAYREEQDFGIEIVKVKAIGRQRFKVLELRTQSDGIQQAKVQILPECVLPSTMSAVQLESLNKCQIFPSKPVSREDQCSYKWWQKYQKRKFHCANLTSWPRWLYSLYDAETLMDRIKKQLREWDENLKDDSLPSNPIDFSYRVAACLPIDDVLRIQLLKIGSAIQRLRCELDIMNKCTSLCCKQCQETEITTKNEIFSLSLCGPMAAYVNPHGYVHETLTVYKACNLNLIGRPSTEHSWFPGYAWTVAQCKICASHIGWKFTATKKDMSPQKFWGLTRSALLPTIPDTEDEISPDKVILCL
Assay: log2 fold change of degron read counts, EGFP-low vs EGFP+ sorted cells (limma voom), compound-induced degradation; higher = more compound-induced degradation of the degron-EGFP fusion; degrons are variants of IKZF1/3 zinc finger 2; compound dose not given here
Conditions: Jurkat; 18 h; compound: thalidomide
Over roughly 8,300 sequences, “log2 fold change of degron read counts, EGFP-low vs EGFP+ sorted cells (limma voom), compound-induced degradation” has its median near -1.1; the highest 2% begin near 3.2. This excerpt belongs to a sample that is enriched for the highest values.
Using log2 fold change of degron read counts as the sorting value, the categories are LOW (below -0.9), MID (-0.9 to below 2), HIGH (2 or more)

{"columns": ["Construct sequence", "Assigned class"],
 "data": [
  ["FYCEICGATFTQKGNLLRHIKL [46F_47Y_49E_50I_52G_53A_54T_55F_67L_, Q9UKT9]", "MID"],
  ["FTCNQCGHIFTQKGNLLRHIKL [46F_47T_49N_50Q_52G_53H_54I_55F_67L_, Q9UKT9]", "LOW"],
  ["FCCEICGATFTQKGNLLRHIKL [46F_47C_49E_50I_52G_53A_54T_55F_67L_, Q9UKT9]", "HIGH"],
  ["FWCPVCGAHFTQKGNLLRHIKL [46F_47W_49P_50V_52G_53A_54H_55F_67L_, Q9UKT9]", "MID"],
  ["FVCPVCGAHFTQKGNLLRHIKL [46F_47V_49P_50V_52G_53A_54H_55F_67L_, Q9UKT9]", "HIGH"]
]}

Data request: // bin(item) where item = FTCEICGATFTQKGNLLRHIKL [46F_47T_49E_50I_52G_53A_54T_55F_67L_, Q9UKT9]
Data returned: HIGH

Data request: // bin(item) where item = FTCDQCGAIFTQKGNLLRHIKL [46F_47T_49D_50Q_52G_53A_54I_55F_67L_, Q9UKT9]
Data returned: LOW

Data request: // bin(item) where item = FFCEICGATFTQKGNLLRHIKL [46F_47F_49E_50I_52G_53A_54T_55F_67L_, Q9UKT9]
Data returned: MID

Data request: // bin(item) where item = FMCEICGHTFTQKGNLLRHIKL [46F_47M_49E_50I_52G_53H_54T_55F_67L_, Q9UKT9]
Data returned: LOW

Data request: // bin(item) where item = FQCPVCGAHFTQKGNLLRHIKL [46F_47Q_49P_50V_52G_53A_54H_55F_67L_, Q9UKT9]
Data returned: HIGH

Data request: // bin(item) where item = FGCPICGRGFTQKGNLLRHIKL [46F_47G_49P_50I_52G_53R_54G_55F_67L_, Q9UKT9]
Data returned: MID

Data request: // bin(item) where item = FECNICGAHFTQKGNLLRHIKL [46F_47E_49N_50I_52G_53A_54H_55F_67L_, Q9UKT9]
Data returned: MID

Data request: // bin(item) where item = FMCPVCGAHFTQKGNLLRHIKL [46F_47M_49P_50V_52G_53A_54H_55F_67L_, Q9UKT9]
Data returned: MID

Data request: // bin(item) where item = FLCEICGATFTQKGNLLRHIKL [46F_47L_49E_50I_52G_53A_54T_55F_67L_, Q9UKT9]
Data returned: MID
